# procedureText: acute toxicity, LD50 oral
# assaySetup: mouse, in vivo, comparison with NT-72 orally in mice, source not stated
Where a name gives a salt, the structure may show the parent alone.
experimentalReadout: LD50

*Q* # input compound: COc1ccc2cc3[n+](cc2c1OC)CCc1cc2c(cc1-3)OCO2 [berberine hydrochloride] ; wanted: its LD50
*A* 60 to 70 mg/kg
